experiment summary: in vivo
protocol conditions: male, beagle, dog, plasma, intravenous, 0.143 mg/kg
Counter-ions that a name gives are not always drawn.
reported property: AUC(0-t) (ng·h/mL)
Report the value in ng·h/mL with no unit label.

Data request: For the compound C=CCN1CC[C@]23c4c5ccc(O)c4O[C@H]2C(=O)CC[C@@]3(O)[C@H]1C5 [Intravenous, Naloxone HCl] , what AUC(0-t) is on record?
Data returned: 20.8

----------
experiment summary: in vivo
protocol conditions: male, beagle, dog, plasma, intravenous, 0.143 mg/kg
Structures can show the parent of a compound that is named as a salt.
reported property: Tmax (min)
Report the value in min with no unit label.

Data request: For the molecule C=CCN1CC[C@]23c4c5ccc(O)c4O[C@H]2C(=O)CC[C@@]3(O)[C@H]1C5 [Intravenous, Naloxone HCl] , what Tmax is on record?
Data returned: 6.7

Source of measurements: patent US11904049B2
